- procedure-details: Stability in human plasma
- Type: in vitro ADME
- condition-context: after 4 hours, 37° C.
- Method: In order to evaluate the stability to circulating enzymes, test compounds were incubated in human and rat plasma at 37° C. in a thermostated oscillating bath. Each test compound was incubated at μM (50 μM when the samples were analysed by UV/HPLC, 1 or 2 μM when the samples were analysed by LC-MS/MS) concentration for 0, 15, 30 min and 1, 2 and 4 hours. […] The percentages of amount remaining at the various times of incubation with respect to initial amount were calculated. […]
test-readout: residual percentage in human plasma (%)

> print(dat)
                               line.notation                         test.readout  numeric.value
 1  O=C(NO)c1cc(F)c(Cc2nnc(-c3ccccc3)s2)c(F)c1  residual percentage in human plasma             95
 2  CCN(CC)Cc1cc(-c2nnc(Sc3c(F)cc(C(=O)NO)cc3F)n2C)c(C)o1  residual percentage in human plasma             97
 3  Cn1c(Sc2c(F)cc(C(=O)NO)cc2F)nnc1-c1ccccn1  residual percentage in human plasma             77
 4  CCN(CC)Cc1ccc(-c2nnc(Sc3c(F)cc(C(=O)NO)cc3F)n2C)o1  residual percentage in human plasma             76
 5  Cn1c(Sc2c(F)cc(C(=O)NO)cc2F)nnc1-c1cccc(CN2CCCCCC2)c1  residual percentage in human plasma             91
 6  Cn1c(Sc2c(F)cc(C(=O)NO)cc2F)nnc1-c1coc(CN2CCOCC2)c1  residual percentage in human plasma             95
 7  Cc1cc(-c2nnc(Sc3c(F)cc(C(=O)NO)cc3F)n2C)nn1C  residual percentage in human plasma             92
 8  O=C(NO)c1cc(F)c(Cn2nnc(-c3ccccn3)n2)c(F)c1  residual percentage in human plasma             96
 9  O=C(NO)c1cc(F)c(Cc2noc(-c3ccccc3)n2)c(F)c1  residual percentage in human plasma             99
10  Cn1c(Sc2c(F)cc(C(=O)NO)cc2F)nnc1-c1cccs1  residual percentage in human plasma             98
11  CN(C)S(=O)(=O)c1ccc(F)c(-c2nnc(Sc3ccc(C(=O)NO)cc3)n2C)c1  residual percentage in human plasma             96
12  Cn1c(Sc2c(F)cc(C(=O)NO)cc2F)nnc1-c1cccc2ccccc12  residual percentage in human plasma             71
13   O=C(NO)c1ccc(Cc2nnc(-c3ccccc3)[nH]2)cc1  residual percentage in human plasma             91
14        O=C(NO)c1ccc(Cn2nnnc2-c2ccccn2)cc1  residual percentage in human plasma           94.3
15      O=C(NO)c1ccc(Cn2nnc(-c3ccccc3)n2)cc1  residual percentage in human plasma             92
16  O=C(NO)c1cc(F)c(Sc2nnc(-c3cncc(Br)c3)s2)c(F)c1  residual percentage in human plasma             89
17  Nc1ccc(-c2nnn(Cc3c(F)cc(C(=O)NO)cc3F)n2)cc1  residual percentage in human plasma             88
18      O=C(NO)c1ccc(Cc2nnc(-c3ccccc3)s2)cc1  residual percentage in human plasma             99
19  O=C(NO)c1cc(F)c(Sc2nnc(-c3ccccc3)o2)c(F)c1  residual percentage in human plasma            100
